All values here come from patent EP0465716A1.

System: Enterobacter cloacae 963
Assay: MIC, twofold agar dilution method (standard laboratory strain)
Format: cell-based
Conditions: Enterobacter cloacae 963, Gram -; 10^6 cfu/ml; 18 hrs at 37 °C
Protocol: Overnight cultures in Mueller-Hinton broth were suspended by buffered saline gelatin. One loopful of the bacterial suspension (10⁶ or 10⁸ colony-forming units/ml) was incubated onto the plates containing test compounds. The plates were incubated for 18 hrs at 37 °C. The MIC was defined by the lowest concentration of the drug that inhibited visible growth of bacteria.
TEST READOUT: MIC (µg/mL)

For orientation, consider the following solved cases.
{"columns": ["COMPOUND", "MIC [µg/mL]"],
 "data": [
  ["CC1Sc2c(C(=O)O)c(=O)c3cc(F)c(N4CCC(N)C4)cc3n21 (stereo not shown)", 0.05],
  ["CC1Sc2c(C(=O)O)c(=O)c3cc(F)c(N4CCNCC4)c(F)c3n21 (stereo not shown)", 0.05]
]}

(1) CC1Sc2c(C(=O)O)c(=O)c3cc(F)c(N4CC[C@H](N)C4)c(F)c3n21 (single isomer, unassigned)
(2) CC1Sc2c(C(=O)O)c(=O)c3cc(F)c(N4CC[C@H](N)C4)c(Cl)c3n21 (single isomer, unassigned)
Endpoint returns the identifier whose MIC is numerically larger, either 1 or 2 . Answer format: the label of the selected item.
2
(2: 0.012 µg/mL, 1: 0.006 µg/mL)

----------
test system: Klebsiella pneumoniae HNR 858; assay: MIC, twofold agar dilution method (clinically isolated strain); type: cell-based; settings: HNR858; Klebsiella pneumoniae HNR 858, Gram -; 10^6 cfu/ml; 18 hrs at 37 °C
TEST READOUT: MIC (µg/mL)

For orientation, consider the following solved cases.
{"columns": ["MOLECULE", "TEST SYSTEM", "MIC (µg/mL)"],
 "data": [
  ["CC1Sc2c(C(=O)O)c(=O)c3cc(F)c(N4CCC(N)C4)cc3n21 (stereo not shown)", "Klebsiella pneumoniae HNR 858", 0.39],
  ["CC1Sc2c(C(=O)O)c(=O)c3cc(F)c(N4CC[C@@H](N)C4)c(Cl)c3n21 (single isomer, unassigned)", "Klebsiella pneumoniae HNR 858", 0.2]
]}

(P) CC1Sc2c(C(=O)O)c(=O)c3cc(F)c(N4CC[C@@H](N)C4)c(F)c3n21 (single isomer, unassigned)
(Q) CC1Sc2c(C(=O)O)c(=O)c3cc(F)c(N4CC[C@H](N)C4)c(F)c3n21 (single isomer, unassigned)
Of P and Q , whose reported MIC is numerically smaller? Answer format: the label of the selected item.
Q
(Q: 0.05 µg/mL, P: 0.2 µg/mL)
